Data provenance: a melting point compilation (Tetko et al.; mined from patent text by program, amines drawn as free bases though some values may be those of a salt)

Measured melting point, listed per entry for reference.

Known results for compounds:
> print(dat)
                                   compound  recorded.endpoint   result.value
1                 C=CCc1cc(OCC(=O)OCC)ccc1O      melting point        52.8 °C
2  COc1ccc([C@@H]2O[C@@](O[Si](C)(C)C)(C(F)(F)F)[C@H](Cc3ccccc3)N2C(=O)OCc2ccccc2)cc1      melting point    41 to 42 °C
3              O=[N+]([O-])c1cc(Cl)cc(O)c1O      melting point  108 to 111 °C
4  CCCOC(=O)Nc1ccc(OCC2CC2(Cl)Cl)c(Cl)c1 (stereo unspecified)      melting point    57 to 59 °C
5  O=C(Oc1cccc2c(-c3ccccc3)c3cccc(OC(=O)c4ccccc4)c3c(OC(=O)c3ccccc3)c12)c1ccccc1      melting point         255 °C
6  Nc1nc2ccccc2c2c1nc(CCCOc1ccccc1)n2CCCNC(=O)c1ccc(Br)cc1      melting point  186 to 187 °C

Input: Param item = COc1cc(C(=O)CCCc2ccccc2)ccc1O ; retrieve measured melting point.
Output: 91 to 92 °C

Input: Param item = COc1cccc(C(=O)c2cccc(C(=O)O)c2)c1 ; retrieve measured melting point.
Output: 160 °C

Input: Param item = COc1ccc(C(C#Cc2ccccc2)Cc2nc(C)co2)cc1OC1CCCC1 (racemic) ; retrieve measured melting point.
Output: 56 to 57 °C

Input: Param item = BrCCCNC(c1ccccc1)(c1ccccc1)c1ccccc1 ; retrieve measured melting point.
Output: 100 to 102 °C

Input: Param item = O=C(CSc1ccccc1)Nc1ccccc1C(=O)O ; retrieve measured melting point.
Output: 166 to 167 °C
